- test: Phase I metabolism in mouse microsomes
- Assay type: in vitro ADME
- assayContext: 1 h incubation, 100 μM, NADPH
testReadout: metabolism by cytochrome P450 enzymes, recovery from supernatant (LCMS)

[
  {
    "molecule": "CN1C(=O)N[C@H]2[C@@H]3NC(=O)c4ccc(Br)n4[C@@H]3C[C@]21O [1a, (−)-Agelastatin A]",
    "dataValue": "quantitative recovery"
  },
  {
    "molecule": "CN1C(=O)N[C@H]2[C@@H]3NC(=O)c4ccc(C(F)(F)F)n4[C@@H]3C[C@]21O",
    "dataValue": "quantitative recovery"
  }
]

###

- test: Phase I metabolism in human microsomes
- Type: in vitro ADME
- assayContext: 1 h incubation, 100 μM, NADPH
testReadout: metabolism by cytochrome P450 enzymes, recovery from supernatant (LCMS)

[
  {
    "molecule": "CN1C(=O)N[C@H]2[C@@H]3NC(=O)c4ccc(C(F)(F)F)n4[C@@H]3C[C@]21O",
    "dataValue": "quantitative recovery"
  },
  {
    "molecule": "CN1C(=O)N[C@H]2[C@@H]3NC(=O)c4ccc(Br)n4[C@@H]3C[C@]21O [1a, (−)-Agelastatin A]",
    "dataValue": "quantitative recovery"
  }
]
